Ref: patent US11724999B2

Target: GST-human KRas166 (G12V) GPPNHP (Homo sapiens, UniProt P01116, G12V)
Construct: made in house; host or cells: E. coli C41(DE3)
Assay: KRas small-molecule screening by SPR (BIACORE T200)
Type: binding
Conditions: compound at final concentration of 100 uM; immobilised GST-KRAS166 (G12V) GPPNHP, GST reference channel
Protocol: For SPR assays pGEX-KRAS(G12V) plasmid was transformed into E. coli C41(DE3). Bacterial cells were cultured at 37° C. to an OD600 of 0.6 and induced with IPTG (final 0.1 mM) at 18° C. overnight. […]
READOUT_KIND: SPR Response Units (Response Units)

Example molecules with recorded SPR Response Units:
> print(dat)
                                   molecule        readout.kind  recorded.result
1  Cc1cccc(COc2ccc3c(c2)O[C@H](CNC(=O)C2CCN(C)CC2)CO3)c1 [Example 28]  SPR Response Units               39
2  CN1CCC(CC(=O)NC[C@@H]2COc3ccc(OCc4ccccc4)cc3O2)CC1 [Example 8]  SPR Response Units               24
3  O=C1CN(c2ccccn2)C(=O)N1C[C@@H]1COc2ccc(OCc3ccccc3)cc2O1.O=CO [Example 78]  SPR Response Units               28

[I] O=C1CN(C2CCNCC2)C(=O)N1C[C@@H]1COc2ccc(OCc3ccccc3)cc2O1 [Example 79]
[II] NCc1ccc(CN(C[C@@H]2COc3ccc(OCc4ccccc4)cc3O2)C(=O)c2ncco2)cc1 [Example 44]
Ask: // returns I or II , whichever has the lower SPR Response Units Provide the label of your selected option as the answer.
Result: I

[A] CN1CCN(Cc2ccc(C(=O)NC[C@@H]3COc4ccc(OCCc5ccccc5)cc4O3)o2)CC1 [Example 23]
[B] CN(C)CCC(=O)NC[C@@H]1COc2ccc(OCc3ccccc3)cc2O1 [Example 6]
Ask: Two entries are listed, A and B . Which one carries the higher SPR Response Units? Provide the label of your selected option as the answer.
Result: A
(A: 86 Response Units, B: 21 Response Units)
